Recorded values, source paper PMC5700166.

Molecular target: GST-Dm-Relish (Drosophila melanogaster, UniProt Q94527 99-473)
Sequence: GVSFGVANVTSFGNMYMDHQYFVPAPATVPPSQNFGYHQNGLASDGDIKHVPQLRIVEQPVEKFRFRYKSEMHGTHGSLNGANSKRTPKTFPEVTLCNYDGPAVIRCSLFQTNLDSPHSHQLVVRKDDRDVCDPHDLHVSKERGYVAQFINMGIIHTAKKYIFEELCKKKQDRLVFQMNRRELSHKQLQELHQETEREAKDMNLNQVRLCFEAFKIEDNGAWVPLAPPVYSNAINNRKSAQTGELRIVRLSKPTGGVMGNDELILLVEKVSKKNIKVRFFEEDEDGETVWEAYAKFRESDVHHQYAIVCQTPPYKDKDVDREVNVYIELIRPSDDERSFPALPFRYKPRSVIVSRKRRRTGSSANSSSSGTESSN
Assay: protein-binding microarray (PBM); PBM: ~300 nM protein, 6 mM HEPES pH 7.8, 80 mM KCl, 0.5 mM EDTA, 0.5 mM EGTA, 6% glycerol, 35 ng/ul poly-dIdC, 1% milk, 1 h, room temperature; high values mean tight binding
Settings: dsDNA, one strand shown
Response field label takes TRUE when binding signal is strictly below 3 z-score and FALSE in all other cases.

{"columns": ["sequence record", "assigned category"],
 "data": [
  ["CCGATTAACATCAAGGAAGTCCCTGATGTTAATCGGGTCTTGATTCGCTTGACGCTGCTG", "FALSE"],
  ["CCGATTAACATCAGGGACCTCCCTGATGTTAATCGGGTCTTGATTCGCTTGACGCTGCTG", "FALSE"],
  ["CCGATTAACATCAGTGGTTACCATGATGTTAATCGGGTCTTGATTCGCTTGACGCTGCTG", "TRUE"],
  ["CCGATTAACATCAGGGATATCCATGATGTTAATCGGGTCTTGATTCGCTTGACGCTGCTG", "TRUE"],
  ["CCGATTAACATCAAAAAGTCCCTTGATGTTAATCGGGTCTTGATTCGCTTGACGCTGCTG", "FALSE"],
  ["CCGATTAACATCAGATCTTCCCCTGATGTTAATCGGGTCTTGATTCGCTTGACGCTGCTG", "FALSE"],
  ["CCGATTAACATCAAGGGAAATCCTGATGTTAATCGGGTCTTGATTCGCTTGACGCTGCTG", "FALSE"],
  ["CCGATTAACATCAGAGACCCCCCTGATGTTAATCGGGTCTTGATTCGCTTGACGCTGCTG", "FALSE"],
  ["CCGATTAACATCACGGAAAAAACTGATGTTAATCGGGTCTTGATTCGCTTGACGCTGCTG", "TRUE"],
  ["CCGATTAACATCAGGAAAACACCTGATGTTAATCGGGTCTTGATTCGCTTGACGCTGCTG", "FALSE"],
  ["CCGATTAACATCAGGGAGGGTAATGATGTTAATCGGGTCTTGATTCGCTTGACGCTGCTG", "TRUE"],
  ["CCGATTAACATCATGGGGGGTAATGATGTTAATCGGGTCTTGATTCGCTTGACGCTGCTG", "TRUE"],
  ["CCGATTAACATCAGGGGGAGCACTGATGTTAATCGGGTCTTGATTCGCTTGACGCTGCTG", "FALSE"],
  ["CCGATTAACATCAAGGATCCCCCTGATGTTAATCGGGTCTTGATTCGCTTGACGCTGCTG", "FALSE"],
  ["CCGATTAACATCAAGGGGATTCCTGATGTTAATCGGGTCTTGATTCGCTTGACGCTGCTG", "FALSE"],
  ["CCGATTAACATCACCGATTTCCCTGATGTTAATCGGGTCTTGATTCGCTTGACGCTGCTG", "TRUE"],
  ["CCGATTAACATCACCCCCCCCCGTGATGTTAATCGGGTCTTGATTCGCTTGACGCTGCTG", "FALSE"]
]}

###

Biological target: GST-Aq-NF-kB (Amphimedon queenslandica, UniProt A9Y5G7 2-389)
Sequence: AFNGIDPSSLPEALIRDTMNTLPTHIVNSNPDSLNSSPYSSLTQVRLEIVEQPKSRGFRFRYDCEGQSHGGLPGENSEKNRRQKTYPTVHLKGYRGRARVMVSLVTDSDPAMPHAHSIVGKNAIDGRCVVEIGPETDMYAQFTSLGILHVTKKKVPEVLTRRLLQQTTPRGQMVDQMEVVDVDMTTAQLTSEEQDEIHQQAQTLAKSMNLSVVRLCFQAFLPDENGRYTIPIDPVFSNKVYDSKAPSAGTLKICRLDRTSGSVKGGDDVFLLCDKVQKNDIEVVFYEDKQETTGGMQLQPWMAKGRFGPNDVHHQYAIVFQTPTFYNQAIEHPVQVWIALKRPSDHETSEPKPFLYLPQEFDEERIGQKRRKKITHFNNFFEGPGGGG
Test: protein-binding microarray (PBM); PBM: ~300 nM protein, 6 mM HEPES pH 7.8, 80 mM KCl, 0.5 mM EDTA, 0.5 mM EGTA, 6% glycerol, 35 ng/ul poly-dIdC, 1% milk, 1 h, room temperature; high values mean tight binding
Conditions: dsDNA, one strand shown
Response field label takes Fulfilled when binding signal is strictly below 4 z-score and Not fulfilled in all other cases.

{"columns": ["sequence record", "assigned category"],
 "data": [
  ["CCGATTAACATCAAAAATTACCCTGATGTTAATCGGGTCTTGATTCGCTTGACGCTGCTG", "Not fulfilled"],
  ["CCGATTAACATCAATATTTTCCCTGATGTTAATCGGGTCTTGATTCGCTTGACGCTGCTG", "Not fulfilled"],
  ["CCGATTAACATCAGGGGGTAGGATGATGTTAATCGGGTCTTGATTCGCTTGACGCTGCTG", "Fulfilled"],
  ["CCGATTAACATCAAAATCACCCCTGATGTTAATCGGGTCTTGATTCGCTTGACGCTGCTG", "Fulfilled"],
  ["CCGATTAACATCAAAGCATCCCCTGATGTTAATCGGGTCTTGATTCGCTTGACGCTGCTG", "Not fulfilled"],
  ["CCGATTAACATCAGGGAACTCCCTGATGTTAATCGGGTCTTGATTCGCTTGACGCTGCTG", "Not fulfilled"],
  ["CCGATTAACATCAATCTACCCCCTGATGTTAATCGGGTCTTGATTCGCTTGACGCTGCTG", "Fulfilled"],
  ["CCGATTAACATCAAAGGGAATTCTGATGTTAATCGGGTCTTGATTCGCTTGACGCTGCTG", "Not fulfilled"],
  ["CCGATTAACATCATTCCCGGAAATGATGTTAATCGGGTCTTGATTCGCTTGACGCTGCTG", "Fulfilled"]
]}

###

Biological target: GST-Aq-NF-kB (Amphimedon queenslandica, UniProt A9Y5G7 2-389)
Sequence: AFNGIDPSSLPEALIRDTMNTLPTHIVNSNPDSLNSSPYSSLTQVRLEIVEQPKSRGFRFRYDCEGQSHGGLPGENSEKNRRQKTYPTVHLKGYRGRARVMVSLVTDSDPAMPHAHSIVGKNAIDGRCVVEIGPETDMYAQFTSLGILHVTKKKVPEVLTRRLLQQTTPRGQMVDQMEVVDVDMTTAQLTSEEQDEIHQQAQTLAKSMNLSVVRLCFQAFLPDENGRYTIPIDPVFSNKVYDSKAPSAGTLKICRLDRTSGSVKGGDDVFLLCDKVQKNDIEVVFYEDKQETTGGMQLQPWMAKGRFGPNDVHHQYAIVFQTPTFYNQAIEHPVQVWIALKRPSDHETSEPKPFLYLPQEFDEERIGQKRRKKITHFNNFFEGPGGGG
Assay: protein-binding microarray (PBM); PBM: ~300 nM protein, 6 mM HEPES pH 7.8, 80 mM KCl, 0.5 mM EDTA, 0.5 mM EGTA, 6% glycerol, 35 ng/ul poly-dIdC, 1% milk, 1 h, room temperature; Ap Aiptasia and Nv Nematostella (sea anemones) / Co Capsaspora / Aq Amphimedon (sponge) / Dm Drosophila / Hu human; RHD is the Rel homology domain; high values mean tight binding
Details: dsDNA, one strand shown
Outcome: 1.0 for binding signal of at least 4 z-score; 0.0 for anything lower.

{"columns": ["sequence record", "assay system", "assigned category"],
 "data": [
  ["CCGATTAACATCAGGGGGTGGAATGATGTTAATCGGGTCTTGATTCGCTTGACGCTGCTG", "GST-Aq-NF-kB (Amphimedon queenslandica, UniProt A9Y5G7 2-389)", 0.0],
  ["CCGATTAACATCAACTTTTTCCCTGATGTTAATCGGGTCTTGATTCGCTTGACGCTGCTG", "GST-Aq-NF-kB (Amphimedon queenslandica, UniProt A9Y5G7 2-389)", 0.0],
  ["CCGATTAACATCAATAATTCCCCTGATGTTAATCGGGTCTTGATTCGCTTGACGCTGCTG", "GST-Aq-NF-kB (Amphimedon queenslandica, UniProt A9Y5G7 2-389)", 1.0],
  ["CCGATTAACATCAGACCTCCCCCTGATGTTAATCGGGTCTTGATTCGCTTGACGCTGCTG", "GST-Aq-NF-kB (Amphimedon queenslandica, UniProt A9Y5G7 2-389)", 1.0],
  ["CCGATTAACATCAAGGGCATCCCTGATGTTAATCGGGTCTTGATTCGCTTGACGCTGCTG", "GST-Aq-NF-kB (Amphimedon queenslandica, UniProt A9Y5G7 2-389)", 0.0],
  ["CCGATTAACATCAGGGATACACCTGATGTTAATCGGGTCTTGATTCGCTTGACGCTGCTG", "GST-Aq-NF-kB (Amphimedon queenslandica, UniProt A9Y5G7 2-389)", 0.0],
  ["CCGATTAACATCACGGGAACTCCTGATGTTAATCGGGTCTTGATTCGCTTGACGCTGCTG", "GST-Aq-NF-kB (Amphimedon queenslandica, UniProt A9Y5G7 2-389)", 1.0],
  ["CCGATTAACATCATGGGAAGGTTTGATGTTAATCGGGTCTTGATTCGCTTGACGCTGCTG", "GST-Aq-NF-kB (Amphimedon queenslandica, UniProt A9Y5G7 2-389)", 0.0]
]}
